Numbers sourced from paper PMC5746249.

system: LC8 dynein light chain (DYNLL2), full-length, His6-tagged (UniProt Q96FJ2)
Sequence (Q96FJ2 whole entry): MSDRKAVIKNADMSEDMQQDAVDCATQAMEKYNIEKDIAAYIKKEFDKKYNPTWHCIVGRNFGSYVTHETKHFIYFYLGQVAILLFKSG
assaySummary: SPR; ProteOn XPR36, HTG chip; His6-LC8 immobilised on Ni2+-NTA surface at three densities (1200, 900, 600 RU); peptides injected at five concentrations, 60 ul/min; 20 mM Hepes, 150 mM NaCl, 0.05% Tween-20, 0.1 mM TCEP, 50 uM EDTA, pH 7.5; 1:1 Langmuir model; Kd is the mean of the kinetic and the equilibrium analysis; apparent
observationType: Kd
// return the numeric value with its unit appended

Give the measured Kd for MPHOSPH9 LC8 binding motif peptide (motif start 909)
1200 nM
